Target: C-C chemokine receptor type 2 (Homo sapiens, UniProt P41597)
Sequence (P41597 whole entry): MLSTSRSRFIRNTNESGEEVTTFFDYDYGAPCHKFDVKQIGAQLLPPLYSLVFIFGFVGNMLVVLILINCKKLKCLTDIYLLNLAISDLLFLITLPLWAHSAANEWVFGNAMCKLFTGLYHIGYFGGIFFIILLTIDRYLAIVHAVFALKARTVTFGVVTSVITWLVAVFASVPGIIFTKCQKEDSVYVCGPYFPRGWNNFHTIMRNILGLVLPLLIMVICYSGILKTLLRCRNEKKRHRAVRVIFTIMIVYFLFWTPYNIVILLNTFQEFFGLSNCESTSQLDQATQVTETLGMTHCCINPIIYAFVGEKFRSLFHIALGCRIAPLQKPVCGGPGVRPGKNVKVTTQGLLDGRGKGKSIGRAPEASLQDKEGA
Experiment: Antagonist activity at human C-C chemokine receptor type 2 expressed in THP-1 cells assessed as inhibition of CCL2-induced calcium flux preincubated for 10 mins followed by CCL2 addition by Fluo-4 dye based FLIPR assay
MEASURE: IC50 (nM)
Numbers only; they are read as nM.

Prompt: Entry CC(C)N1CCN[C@@H](C(=O)N2CCN(C(=O)Nc3nc(C(C)(C)C)c(Cl)s3)CC2)C1 has what IC50?
Response: 2.3

Prompt: Give its IC50 value. Item: CCc1nc(NC(=O)N2CCN(C(=O)[C@H]3CN(C(C)C)CCN3)CC2)sc1Cl
Response: 1.7

Prompt: IC50 for CC(C)(C)N1CCN[C@@H](C(=O)N2CCN(C(=O)Nc3nc(C(F)(F)F)c(Cl)s3)CC2)C1 ?
Response: 0.13

Prompt: Give its IC50 value. Item: CC(C)(C)N1CCN[C@@H](C(=O)N2CCN(C(=O)Nc3nc(C4CC4)cs3)CC2)C1
Response: 1.1

Prompt: Quick one: IC50 for CC(C)(C)N1CCN[C@@H](C(=O)N2CCN(C(=O)Nc3ncc(Cl)s3)CC2)C1 ?
Response: 7.4

Prompt: Which IC50 reading was recorded for the compound CC(C)N1CCN[C@@H](C(=O)N2CCN(C(=O)Nc3nc(C(C)(C)C)c(F)s3)CC2)C1 ?
Response: 2.7

Prompt: Entry under review: CC(C)c1nc(NC(=O)N2CCN(C(=O)[C@H]3CN(C(C)C)CCN3)CC2)sc1Cl . Reported IC50?
Response: 1.2

Prompt: Item under review: CC(C)(C)N1CCN[C@@H](C(=O)N2CCN(C(=O)Nc3ncc(F)s3)CC2)C1 . Reported IC50?
Response: 9.2

Prompt: Bench note: what IC50 did COc1sc(NC(=O)N2CCN(C(=O)[C@H]3CN(C(C)(C)C)CCN3)CC2)nc1C show?
Response: 41

Prompt: Consider the compound Cc1nc(NC(=O)N2CCN(C(=O)[C@H]3CN(C(C)(C)C)CCN3)CC2)sc1Cl and give its measured IC50.
Response: 0.65
